conditions: in water, 308 K
METRIC: solubility (mole fraction)
# answer = number (no unit)

Ask: What value of measured solubility (mole fraction) is listed for CC[C@H]1OC(=O)[C@H](C)[C@@H](O[C@H]2C[C@@](C)(OC)[C@@H](O)[C@H](C)O2)[C@H](C)[C@@H](O[C@@H]2O[C@H](C)C[C@H](N(C)C)[C@H]2O)[C@](C)(O)C[C@@H](C)C(=O)[C@H](C)[C@@H](O)[C@]1(C)O.O.O ?
Result: 4e-05

---

conditions: in acetone, 298 K
METRIC: solubility (mole fraction)

Ask: So what does the record say about solubility (mole fraction) for CC[C@H]1OC(=O)[C@H](C)[C@@H](O[C@H]2C[C@@](C)(OC)[C@@H](O)[C@H](C)O2)[C@H](C)[C@@H](O[C@@H]2O[C@H](C)C[C@H](N(C)C)[C@H]2O)[C@](C)(O)C[C@@H](C)C(=O)[C@H](C)[C@@H](O)[C@]1(C)O.O.O ?
Result: 0.0131

---

details: in isopropanol, 313.1 K
METRIC: solubility (mole fraction)
# respond with the number and nothing more

Ask: Quick check: solubility (mole fraction) of CC[C@H]1OC(=O)[C@H](C)[C@@H](O[C@H]2C[C@@](C)(OC)[C@@H](O)[C@H](C)O2)[C@H](C)[C@@H](O[C@@H]2O[C@H](C)C[C@H](N(C)C)[C@H]2O)[C@](C)(O)C[C@@H](C)C(=O)[C@H](C)[C@@H](O)[C@]1(C)O.O.O ?
Result: 0.00995

---

conditions: in methanol, 293.2 K
METRIC: solubility (mole fraction)
Give the figure by itself; no unit, no explanation.

Ask: Given CC[C@H]1OC(=O)[C@H](C)[C@@H](O[C@H]2C[C@@](C)(OC)[C@@H](O)[C@H](C)O2)[C@H](C)[C@@H](O[C@@H]2O[C@H](C)C[C@H](N(C)C)[C@H]2O)[C@](C)(O)C[C@@H](C)C(=O)[C@H](C)[C@@H](O)[C@]1(C)O.O.O , state its recorded solubility (mole fraction).
Result: 0.0116

---

details: in water, 313.1 K
METRIC: solubility (mole fraction)

Ask: Using the record for CC[C@H]1OC(=O)[C@H](C)[C@@H](O[C@H]2C[C@@](C)(OC)[C@@H](O)[C@H](C)O2)[C@H](C)[C@@H](O[C@@H]2O[C@H](C)C[C@H](N(C)C)[C@H]2O)[C@](C)(O)C[C@@H](C)C(=O)[C@H](C)[C@@H](O)[C@]1(C)O.O.O , report its solubility (mole fraction).
Result: 3.8e-05

---

conditions: in acetone, 308 K
METRIC: solubility (mole fraction)
Answer field: number only, no words.

Ask: Give the measured solubility (mole fraction) of CC[C@H]1OC(=O)[C@H](C)[C@@H](O[C@H]2C[C@@](C)(OC)[C@@H](O)[C@H](C)O2)[C@H](C)[C@@H](O[C@@H]2O[C@H](C)C[C@H](N(C)C)[C@H]2O)[C@](C)(O)C[C@@H](C)C(=O)[C@H](C)[C@@H](O)[C@]1(C)O.O.O .
Result: 0.0293

---

details: in acetone, 318 K
METRIC: solubility (mole fraction)
// return a plain number; no unit text

Ask: Which solubility (mole fraction) value belongs to CC[C@H]1OC(=O)[C@H](C)[C@@H](O[C@H]2C[C@@](C)(OC)[C@@H](O)[C@H](C)O2)[C@H](C)[C@@H](O[C@@H]2O[C@H](C)C[C@H](N(C)C)[C@H]2O)[C@](C)(O)C[C@@H](C)C(=O)[C@H](C)[C@@H](O)[C@]1(C)O.O.O ?
Result: 0.0542
